Where do the numbers come from? From ChEMBL document CHEMBL4706580.

Catalogue of log10(Ki) values
Assay: Inhibition of beta-lactamase NDM1 (unknown origin) expressed in Escherichia coli BL21(DE3) using cefotaxime/nitrocefin as substrate by measuring substrate hydrolysis by spectrophotometric analysis
Kindly note that the scale is log10 and the underlying Ki is in µM.

> print(dat)
                                chem.smiles  result.number
1  S=c1[nH]nc(-c2cccc(-c3ccccc3)c2)n1/N=C/c1ccc(OCc2ccccc2)cc1           0.26
2  O=C(O)c1ccccc1/C=N/n1c(-c2ccccc2)n[nH]c1=S           1.58
3  O=C(O)c1ccccc1/C=N/n1c(-c2ccc(OCc3ccccc3)cc2)n[nH]c1=S           0.45
4  O=C(O)c1ccccc1/C=N/n1c(CC(c2ccccc2)c2ccccc2)n[nH]c1=S           0.43
5  O=C(O)c1ccccc1/C=N/n1c(-c2ccc(Cl)cc2)n[nH]c1=S           0.88
6  Oc1ccc(/C=N/n2c(-c3ccc(Cl)cc3)n[nH]c2=S)c(O)c1           0.49
7  S=c1[nH]nc(-c2cccc(Cl)c2)n1/N=C/c1ccc(OCc2ccccc2)cc1           0.83
8  O=C(O)c1ccccc1/C=N/n1c(-c2cccc(Cl)c2)n[nH]c1=S           0.88

Input line: Value lookup for log10(Ki); key = "COc1cc(O)ccc1/C=N/n1c(-c2ccccc2C)n[nH]c1=S"
Output line: 2.08

Input line: Same for "O=C(O)c1ccccc1/C=N/n1c(COc2ccc3ccccc3c2)n[nH]c1=S"
Output line: 0.38
